- test.system: D(3) dopamine receptor (Homo sapiens, UniProt P35462)
- Sequence (P35462 whole entry): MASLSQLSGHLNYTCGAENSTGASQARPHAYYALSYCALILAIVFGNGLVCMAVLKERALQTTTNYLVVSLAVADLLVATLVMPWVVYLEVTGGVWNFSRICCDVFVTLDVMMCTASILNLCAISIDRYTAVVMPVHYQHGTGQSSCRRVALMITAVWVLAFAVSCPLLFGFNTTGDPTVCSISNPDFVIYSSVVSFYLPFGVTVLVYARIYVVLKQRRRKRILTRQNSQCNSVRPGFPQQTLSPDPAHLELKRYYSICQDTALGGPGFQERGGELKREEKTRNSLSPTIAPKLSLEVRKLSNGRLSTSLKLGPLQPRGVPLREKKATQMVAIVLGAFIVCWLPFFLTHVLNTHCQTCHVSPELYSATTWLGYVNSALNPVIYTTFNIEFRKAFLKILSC
- protocol.notes: Binding affinity to dopamine D3 receptor
pKi: −log10 of the molar value.

{"compound": "CC(=O)Nc1ccc(CCN2C[C@@H]3COc4ccc(C#N)cc4[C@H]3C2)cc1", "pKi": 8.70}
{"compound": "Cc1nc(-c2ccc(C(=O)N[C@H]3CC[C@H](CCN4CCc5ccc(S(C)(=O)=O)cc5CC4)CC3)cc2)no1", "pKi": 8.40}

---

- protocol.notes: Displacement of [3H]Prazosin from pig adrenergic alpha1 receptor
- Design: species or system Sus scrofa
Listed here: items and their measured Ki.
property.measured: Ki (nM)

{"compound": "COc1ccccc1N1CCN(CCCCN2CCc3cc(-c4cccs4)ccc3C2=O)CC1", "property.measured": "Ki", "value.observed": 3.7}
{"compound": "COc1ccccc1N1CCN(CCCCN2CCc3ccccc3C2=O)CC1", "property.measured": "Ki", "value.observed": 2.3}
{"compound": "COc1ccccc1N1CCN(CCCCN2CCc3cc(C#N)ccc3C2=O)CC1", "property.measured": "Ki", "value.observed": 3.8}
{"compound": "C#Cc1ccc2c(c1)CCN(CCCCN1CCN(c3ccccc3OC)CC1)C2=O", "property.measured": "Ki", "value.observed": 2.4}
{"compound": "COc1ccccc1N1CCN(CCCCN2CCc3cc(-c4ccco4)ccc3C2=O)CC1", "property.measured": "Ki", "value.observed": 1.6}
{"compound": "COc1ccccc1N1CCN(CCCCN2CCc3cc(-c4ccncc4)ccc3C2=O)CC1", "property.measured": "Ki", "value.observed": 2.2}
{"compound": "COc1ccc2c(c1)CCCN(CCCCN1CCN(c3ccccc3OC)CC1)C2=O", "property.measured": "Ki", "value.observed": 3.7}
{"compound": "COc1ccccc1N1CCN(CCCCN2CCCc3ccccc3C2=O)CC1", "property.measured": "Ki", "value.observed": 5.7}
{"compound": "COc1ccccc1N1CCN(CCCCN2CCc3c(cccc3-c3ccccc3)C2=O)CC1", "property.measured": "Ki", "value.observed": 1.3}
{"compound": "COc1ccccc1N1CCN(CCCCN2CCc3cc(-c4ccccc4)ccc3C2=O)CC1", "property.measured": "Ki", "value.observed": 5.4}
{"compound": "COc1ccccc1N1CCN(CCCCN2CCc3cc(F)ccc3C2=O)CC1", "property.measured": "Ki", "value.observed": 3.1}
{"compound": "COc1ccccc1N1CCN(CCCCN2CCCc3cc(-c4cccs4)ccc3C2=O)CC1", "property.measured": "Ki", "value.observed": 9.7}

---

- test.system: D(3) dopamine receptor (Homo sapiens)
- protocol.notes: Displacement of [3H]Spiperone from human dopamine D3 receptor expressed in CHO cells
- Format: cell-based
pKi: −log10 of the molar value.
property.measured: pKi

{"compound": "COc1ccccc1N1CCN(CCCCN2CCc3cc(F)ccc3C2=O)CC1", "value.observed": 8.80}
{"compound": "COc1ccccc1N1CCN(CCCCN2CCc3cc(-c4ccccc4)ccc3C2=O)CC1", "value.observed": 9.60}
{"compound": "COc1ccc2c(c1)CCCN(CCCCN1CCN(c3ccccc3OC)CC1)C2=O", "value.observed": 9.57}
{"compound": "COc1ccccc1N1CCN(CCCCN2CCc3cc(-c4ccco4)ccc3C2=O)CC1", "value.observed": 9.68}
{"compound": "C#Cc1ccc2c(c1)CCN(CCCCN1CCN(c3ccccc3OC)CC1)C2=O", "value.observed": 9.30}

---

- test.system: D(3) dopamine receptor (Homo sapiens, UniProt P35462)
- protocol.notes: Displacement of [3H]Spiperone from human dopamine D3 receptor expressed in CHO cells
- Format: cell-based
Response field label takes met when Ki is strictly below 300 pM and not met in all other cases.

{"compound": "COc1ccccc1N1CCN(CCCCN2CCCc3ccccc3C2=O)CC1", "test.system": "D(3) dopamine receptor (Homo sapiens, UniProt P35462)", "discrete.label": "met"}
{"compound": "COc1ccccc1N1CCN(CCCCN2CCc3cc(-c4cccs4)ccc3C2=O)CC1", "test.system": "D(3) dopamine receptor (Homo sapiens, UniProt P35462)", "discrete.label": "met"}
{"compound": "COc1ccccc1N1CCN(CCCCN2CCc3cc(C#N)ccc3C2=O)CC1", "test.system": "D(3) dopamine receptor (Homo sapiens, UniProt P35462)", "discrete.label": "not met"}
{"compound": "COc1ccccc1N1CCN(CCCCN2CCCc3cc(-c4cccs4)ccc3C2=O)CC1", "test.system": "D(3) dopamine receptor (Homo sapiens, UniProt P35462)", "discrete.label": "met"}
{"compound": "COc1ccccc1N1CCN(CCCCN2CCc3c(cccc3-c3ccccc3)C2=O)CC1", "test.system": "D(3) dopamine receptor (Homo sapiens, UniProt P35462)", "discrete.label": "not met"}
{"compound": "COc1ccccc1N1CCN(CCCCN2CCc3cc(-c4ccncc4)ccc3C2=O)CC1", "test.system": "D(3) dopamine receptor (Homo sapiens, UniProt P35462)", "discrete.label": "met"}

---

- test.system: 5-hydroxytryptamine receptor 2A (Sus scrofa, UniProt P50129)
- Sequence (P50129 whole entry): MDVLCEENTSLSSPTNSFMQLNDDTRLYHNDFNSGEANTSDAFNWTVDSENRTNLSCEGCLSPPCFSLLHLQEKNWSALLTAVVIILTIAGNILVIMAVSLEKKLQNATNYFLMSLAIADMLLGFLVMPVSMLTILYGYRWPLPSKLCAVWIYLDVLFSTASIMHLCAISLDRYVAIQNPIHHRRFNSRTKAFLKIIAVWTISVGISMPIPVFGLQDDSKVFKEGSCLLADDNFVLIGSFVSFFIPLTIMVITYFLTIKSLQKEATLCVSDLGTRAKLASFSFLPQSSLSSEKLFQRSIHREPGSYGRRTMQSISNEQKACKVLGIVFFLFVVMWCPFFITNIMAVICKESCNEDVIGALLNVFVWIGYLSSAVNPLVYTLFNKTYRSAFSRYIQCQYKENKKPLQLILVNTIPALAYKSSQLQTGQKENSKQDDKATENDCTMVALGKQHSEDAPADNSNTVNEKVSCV
- protocol.notes: Displacement of [3H]Ketanserin from pig 5-HT2 receptor

{"compound": "COc1ccccc1N1CCN(CCCCN2CCc3cc(-c4cccs4)ccc3C2=O)CC1", "Ki": "190 nM"}
{"compound": "C#Cc1ccc2c(c1)CCN(CCCCN1CCN(c3ccccc3OC)CC1)C2=O", "Ki": "920 nM"}
{"compound": "COc1ccccc1N1CCN(CCCCN2CCCc3cc(-c4cccs4)ccc3C2=O)CC1", "Ki": "530 nM"}
{"compound": "COc1ccccc1N1CCN(CCCCN2CCc3cc(F)ccc3C2=O)CC1", "Ki": "840 nM"}
{"compound": "COc1ccccc1N1CCN(CCCCN2CCc3ccccc3C2=O)CC1", "Ki": "990 nM"}

---

Listed here: items and their measured Ki.
- test.system: D(2) dopamine receptor (Homo sapiens, UniProt P14416)
- Sequence (P14416 whole entry): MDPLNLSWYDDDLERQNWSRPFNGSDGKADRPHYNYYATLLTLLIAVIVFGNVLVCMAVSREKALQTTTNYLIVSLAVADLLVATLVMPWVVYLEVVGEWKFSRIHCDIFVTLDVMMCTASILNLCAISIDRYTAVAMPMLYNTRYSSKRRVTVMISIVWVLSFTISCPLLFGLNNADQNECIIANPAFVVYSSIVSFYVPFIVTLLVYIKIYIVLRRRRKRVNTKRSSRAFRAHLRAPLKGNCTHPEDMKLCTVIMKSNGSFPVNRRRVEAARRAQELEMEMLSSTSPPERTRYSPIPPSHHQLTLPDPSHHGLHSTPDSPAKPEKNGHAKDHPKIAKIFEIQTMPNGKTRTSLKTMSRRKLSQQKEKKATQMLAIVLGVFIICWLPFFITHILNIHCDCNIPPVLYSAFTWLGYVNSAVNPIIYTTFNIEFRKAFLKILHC
- protocol.notes: Displacement of [3H]Spiperone from human dopamine D2 long receptor expressed in CHO cells
- Type: cell-based

{"compound": "C#Cc1ccc2c(c1)CCN(CCCCN1CCN(c3ccccc3OC)CC1)C2=O", "Ki (nM)": 24}
{"compound": "COc1ccccc1N1CCN(CCCCN2CCc3cc(-c4cccs4)ccc3C2=O)CC1", "Ki (nM)": 11}
{"compound": "COc1ccccc1N1CCN(CCCCN2CCc3cc(F)ccc3C2=O)CC1", "Ki (nM)": 26}
{"compound": "COc1ccccc1N1CCN(CCCCN2CCc3cc(-c4ccco4)ccc3C2=O)CC1", "Ki (nM)": 16}
{"compound": "COc1ccccc1N1CCN(CCCCN2CCc3cc(-c4ccccc4)ccc3C2=O)CC1", "Ki (nM)": 38}
{"compound": "COc1ccc2c(c1)CCCN(CCCCN1CCN(c3ccccc3OC)CC1)C2=O", "Ki (nM)": 3.2}
{"compound": "COc1ccccc1N1CCN(CCCCN2CCc3ccccc3C2=O)CC1", "Ki (nM)": 21}
{"compound": "COc1ccccc1N1CCN(CCCCN2CCCc3ccccc3C2=O)CC1", "Ki (nM)": 3.9}
{"compound": "COc1ccccc1N1CCN(CCCCN2CCc3c(cccc3-c3ccccc3)C2=O)CC1", "Ki (nM)": 52}
{"compound": "COc1ccccc1N1CCN(CCCCN2CCc3cc(C#N)ccc3C2=O)CC1", "Ki (nM)": 38}
{"compound": "COc1ccccc1N1CCN(CCCCN2CCCc3cc(-c4cccs4)ccc3C2=O)CC1", "Ki (nM)": 5.1}

---

Target chain: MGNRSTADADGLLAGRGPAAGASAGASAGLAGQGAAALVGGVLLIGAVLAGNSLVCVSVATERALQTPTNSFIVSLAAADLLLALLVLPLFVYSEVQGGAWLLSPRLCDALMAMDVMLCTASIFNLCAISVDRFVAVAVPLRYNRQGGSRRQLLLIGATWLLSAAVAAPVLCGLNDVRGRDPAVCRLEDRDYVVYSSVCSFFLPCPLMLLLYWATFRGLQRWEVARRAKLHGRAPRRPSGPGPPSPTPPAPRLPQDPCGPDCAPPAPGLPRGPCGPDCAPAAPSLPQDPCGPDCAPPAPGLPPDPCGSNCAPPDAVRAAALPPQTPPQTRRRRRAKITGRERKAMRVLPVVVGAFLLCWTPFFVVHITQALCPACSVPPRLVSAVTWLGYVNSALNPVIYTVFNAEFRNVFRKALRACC
Listed here: items and their measured Ki.
property.measured: Ki

{"compound": "COc1ccc2c(c1)CCCN(CCCCN1CCN(c3ccccc3OC)CC1)C2=O", "value.observed": "3 nM"}
{"compound": "COc1ccccc1N1CCN(CCCCN2CCc3cc(C#N)ccc3C2=O)CC1", "value.observed": "6.1 nM"}
{"compound": "COc1ccccc1N1CCN(CCCCN2CCc3cc(-c4ccco4)ccc3C2=O)CC1", "value.observed": "3.3 nM"}
{"compound": "COc1ccccc1N1CCN(CCCCN2CCc3cc(-c4ccncc4)ccc3C2=O)CC1", "value.observed": "3.4 nM"}
{"compound": "COc1ccccc1N1CCN(CCCCN2CCc3ccccc3C2=O)CC1", "value.observed": "1.9 nM"}
{"compound": "COc1ccccc1N1CCN(CCCCN2CCCc3ccccc3C2=O)CC1", "value.observed": "1.3 nM"}
{"compound": "COc1ccccc1N1CCN(CCCCN2CCc3cc(F)ccc3C2=O)CC1", "value.observed": "2.8 nM"}

The origin of these recorded values is ChEMBL document CHEMBL1770099.
